// data source = PubChem BioAssay AID1159580

# EXPERIMENT: chemical genetic growth profiling, strain panel (AID 1159580);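 note: tested at 20 µM; growth read once vehicle control cultures reached saturation at 30 °C; 1 = growth at the plate median or of vehicle wells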
# TEST_PARAMETERS: S. cerevisiae deletion strains, growth OD, locus YGR078C, strain PAC10, stronger effect = lower value
Screen size: about 5,500 compounds; about 2,000 (36%) were called active. Inconclusive results (about 18%) are left out. This is one part of the list.
VALUE_KIND: normalized growth

>  <MOLECULE>
NC(=S)CSc1ccccc1

>  <NUMERIC_RESULT>
0.99

$$$$
>  <MOLECULE>
Cc1cc(C)c(Cn2nc(C(C)(C)C)cc2C(=O)Nc2cccc(C(F)(F)F)c2)c(C)c1

>  <NUMERIC_RESULT>
0.998

$$$$
>  <MOLECULE>
CC(=O)OC1CCC2(C)C(CC(OC(C)=O)C3(C)C4=CC(=O)OC(c5ccoc5)C4(C)CCC23)C1(C)C (stereo not given)

>  <NUMERIC_RESULT>
0.948

$$$$
>  <MOLECULE>
C#CCN[C@H](C)Cc1ccccc1

>  <NUMERIC_RESULT>
0.987

$$$$
>  <MOLECULE>
COC(=O)c1c(OC)cc2c(c1C)Oc1c(Cl)c(OC(C)=O)c(Cl)c(C)c1C(=O)O2

>  <NUMERIC_RESULT>
1.01

$$$$
>  <MOLECULE>
CC(C)(C)c1cc(C(=O)NNC(=O)c2cc(C(F)(F)F)cc(C(F)(F)F)c2)n(Cc2ccc(F)cc2)n1

>  <NUMERIC_RESULT>
1.01

$$$$
>  <MOLECULE>
Cc1cccc(Cn2nc(C(C)(C)C)cc2C(=O)O)c1

>  <NUMERIC_RESULT>
0.97

$$$$
>  <MOLECULE>
COc1c(Br)cc(/C(N)=N\OC(=O)c2c(-c3c(Cl)cccc3Cl)noc2C)cc1Br

>  <NUMERIC_RESULT>
1.02

$$$$
>  <MOLECULE>
N#CC(c1ccccc1)N1CCCCC1 (stereo not given)

>  <NUMERIC_RESULT>
1

$$$$
>  <MOLECULE>
CCCc1c(OCCCCc2nn[nH]n2)ccc(C(C)=O)c1O

>  <NUMERIC_RESULT>
1.01

$$$$

* * *

# EXPERIMENT: chemical genetic growth profiling, strain panel (AID 1159580);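 note: tested at 20 µM; growth read once vehicle control cultures reached saturation at 30 °C; 1 = growth at the plate median or of vehicle wells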
# TEST_PARAMETERS: S. cerevisiae deletion strains, growth OD, locus YDR392W, strain spt3
Hit rate of the full screen: of about 5,500 compounds, about 2,000 (36%) were called active. Roughly 18% stayed inconclusive and do not appear here. No stated cut-off is given here; in the data, active means normalized growth mostly below about 0.91 (no sharp cut-off); inconclusive means no clear call, values can overlap the other calls; inactive means mostly above about 0.92. This is one part of the list.
Labels: 1 (yes) (active), 0 (no) (inactive)

>  <COMPOUND>
Cc1cc(=O)oc2cc(O)c(O)cc12

>  <CATEGORY_LABEL>
0 (no)

$$$$
>  <COMPOUND>
CC(=O)OCC(=O)[C@@]1(O)[C@H](C)CC2C3CCC4=CC(=O)C=C[C@]4(C)[C@@]3(F)[C@@H](O)C[C@@]21C (some centres not stated)

>  <CATEGORY_LABEL>
0 (no)

$$$$
>  <COMPOUND>
CN(C)[C@@H]1C(=O)C(C(N)=O)=C(O)[C@@]2(O)C(=O)C3=C(O)c4c(O)cccc4[C@@](C)(O)[C@H]3[C@H](O)[C@@H]12

>  <CATEGORY_LABEL>
0 (no)

$$$$
>  <COMPOUND>
Cc1cn[nH]c1

>  <CATEGORY_LABEL>
0 (no)

$$$$
>  <COMPOUND>
CC[N+](C)(C)c1cccc(O)c1

>  <CATEGORY_LABEL>
0 (no)

$$$$
>  <COMPOUND>
COc1ccccc1OCC(O)CO (configuration not stated)

>  <CATEGORY_LABEL>
0 (no)

$$$$
>  <COMPOUND>
CC(=O)c1cc(CC=C(C)C)c(O)c(CC=C(C)C)c1

>  <CATEGORY_LABEL>
0 (no)

$$$$
>  <COMPOUND>
N=C(N)N

>  <CATEGORY_LABEL>
0 (no)

$$$$
>  <COMPOUND>
CC(C)CCCC(C)C1CCC2C3C[C@@H](O)[C@@]4(O)C[C@@H](O)CC[C@]4(C)C3CC[C@]12C (some centres not stated)

>  <CATEGORY_LABEL>
0 (no)

$$$$
>  <COMPOUND>
CC(=O)Oc1ccc(C(c2ccc(OC(C)=O)cc2)c2ccccn2)cc1

>  <CATEGORY_LABEL>
0 (no)

$$$$
>  <COMPOUND>
CC(C)(C)NCC(O)c1ccc(O)c(CO)c1 (configuration not stated)

>  <CATEGORY_LABEL>
0 (no)

$$$$
>  <COMPOUND>
C=C1c2c(Cl)ccc(O)c2C(O)=C2C(=O)[C@]3(O)C(O)=C(C(N)=O)C(=O)[C@@H](N(C)C)[C@@H]3[C@@H](O)[C@H]12

>  <CATEGORY_LABEL>
0 (no)

$$$$
>  <COMPOUND>
C=C1c2cccc(O)c2C(O)=C2C(=O)[C@]3(O)C(O)=C(C(N)=O)C(=O)[C@@H](N(C)C)[C@@H]3[C@@H](O)[C@H]12

>  <CATEGORY_LABEL>
0 (no)

$$$$
>  <COMPOUND>
CC(=O)Oc1cccc(O)c1

>  <CATEGORY_LABEL>
0 (no)

$$$$
>  <COMPOUND>
O=P1(NCCCl)OCCCN1CCCl (configuration not stated)

>  <CATEGORY_LABEL>
0 (no)

$$$$
>  <COMPOUND>
CC(=O)Oc1ccc(/C=C/c2cc(OC(C)=O)cc(OC(C)=O)c2)cc1

>  <CATEGORY_LABEL>
1 (yes)

$$$$
>  <COMPOUND>
CC(C)NCC(O)COc1ccc(COCCOC(C)C)cc1 (configuration not stated)

>  <CATEGORY_LABEL>
0 (no)

$$$$
>  <COMPOUND>
CC(=O)Oc1ccc(O)cc1

>  <CATEGORY_LABEL>
0 (no)

$$$$
>  <COMPOUND>
C/C=C\C1=C(C(=O)O)N2C(=O)C(NC(=O)C(N)c3ccc(O)cc3)C2SC1 (configuration not stated)

>  <CATEGORY_LABEL>
0 (no)

$$$$
>  <COMPOUND>
CC(=O)O[C@@H]1CC2C(C)(C)C(=O)C=C[C@]2(C)C2CC[C@]3(C)C(=CC(=O)O[C@H]3c3ccoc3)[C@@]21C (some centres not stated)

>  <CATEGORY_LABEL>
0 (no)

$$$$
>  <COMPOUND>
Nc1ccc(C(=O)O)cc1

>  <CATEGORY_LABEL>
0 (no)

$$$$
>  <COMPOUND>
CC12CCC3C(CC3(C)C)C(C)(CCC1=O)O2 (configuration not stated)

>  <CATEGORY_LABEL>
0 (no)

$$$$
>  <COMPOUND>
CC(=O)O[C@@H]1C=C[C@@]2(C)C(C[C@@H](OC(C)=O)[C@@]3(C)C4=CC(=O)O[C@@H](c5ccoc5)[C@]4(C)CCC23)C1(C)C (some centres not stated)

>  <CATEGORY_LABEL>
0 (no)

$$$$
>  <COMPOUND>
CCCSc1ccc2nc(NC(=O)OC)[nH]c2c1

>  <CATEGORY_LABEL>
0 (no)

$$$$
>  <COMPOUND>
C[C@H]1c2cccc(O)c2C(O)=C2C(=O)[C@]3(O)C(O)=C(C(N)=O)C(=O)[C@@H](N(C)C)[C@@H]3[C@@H](O)[C@@H]21

>  <CATEGORY_LABEL>
0 (no)

$$$$
>  <COMPOUND>
CCCOc1ccc2nc(NC(=O)OC)[nH]c2c1

>  <CATEGORY_LABEL>
0 (no)

$$$$
>  <COMPOUND>
O=C(O)c1cc(O)c2c(c1)[C@@H]([C@H]1c3cc(C(=O)O)cc(O)c3C(=O)c3c(O[C@H]4O[C@H](CO)[C@@H](O)[C@H](O)[C@H]4O)cccc31)c1cccc(O[C@H]3O[C@H](CO)[C@@H](O)[C@H](O)[C@H]3O)c1C2=O

>  <CATEGORY_LABEL>
0 (no)

$$$$
>  <COMPOUND>
CCN(CC)CCOC(=O)C1(C2CCCCC2)CCCCC1

>  <CATEGORY_LABEL>
0 (no)

$$$$
>  <COMPOUND>
CC12CCC(=O)C=C1CCC1C2[C@@H](O)CC2(C)C1CC[C@]2(O)C(=O)COP(=O)(O)O (some centres not stated)

>  <CATEGORY_LABEL>
0 (no)

$$$$
>  <COMPOUND>
COc1cc(C/C=C/c2ccccc2)c(OC)cc1O

>  <CATEGORY_LABEL>
1 (yes)

$$$$
>  <COMPOUND>
CS(=O)(=O)c1ccc([C@@H](O)[C@@H](CO)NC(=O)C(Cl)Cl)cc1

>  <CATEGORY_LABEL>
0 (no)

$$$$
>  <COMPOUND>
COc1ccc([C@@H]2CC(=O)c3c(O)cc(O[C@@H]4O[C@H](CO[C@H]5O[C@@H](C)[C@H](O)[C@@H](O)[C@H]5O)[C@@H](O)[C@H](O)[C@H]4O)cc3O2)cc1O

>  <CATEGORY_LABEL>
0 (no)

$$$$
